Taken from ChEMBL document CHEMBL4033701.

Tested on: KB
Assay: Cytotoxicity against human KB cells after 72 hrs by SRB assay
Assay type: functional, cell-based
I'd appreciate it if you could supply IC50 values for the items below.
Response body: numeric value in µM, unit text excluded.

Query C=C(C)C[C@@H](C[C@]1(C)OC(=O)[C@]23CC[C@H]4C(=CC[C@H]5C(C)(C)[C@@H](O[C@@H]6OC[C@@H](O)[C@H](O)[C@H]6O[C@@H]6OC[C@@H](O)[C@H](O)[C@H]6O)CC[C@]45C)[C@]2(C)CC[C@@H]31)OC(C)=O yields IC50 of 2.36

Query CC(=O)O[C@@H](CC(C)C)C[C@]1(C)OC(=O)[C@]23CC[C@H]4C(=CC[C@H]5C(C)(C)[C@@H](O[C@@H]6OC[C@@H](O)[C@H](O)[C@H]6O[C@@H]6O[C@H](CO)[C@@H](O)[C@H](O)[C@H]6O)CC[C@]45C)[C@]2(C)CC[C@@H]31 yields IC50 of 8.86

Query CC(=O)O[C@@H](CC(C)C)C[C@]1(C)OC(=O)[C@]23CC[C@H]4C(=CC[C@H]5C(C)(C)[C@@H](O[C@@H]6OC[C@@H](O)[C@H](O)[C@H]6O[C@@H]6O[C@H](C)[C@@H](O)[C@H](O)[C@H]6O)CC[C@]45C)[C@]2(C)CC[C@@H]31 yields IC50 of 2.82

Query C=C(C)C[C@@H](C[C@]1(C)OC(=O)[C@]23CC[C@H]4C(=CC[C@H]5C(C)(C)[C@@H](O[C@@H]6OC[C@@H](O)[C@H](O)[C@H]6O[C@@H]6O[C@H](CO)[C@@H](O)[C@H](O)[C@H]6O)CC[C@]45C)[C@]2(C)CC[C@@H]31)OC(C)=O yields IC50 of 11

Query C=C(C)CCC(O)[C@]1(C)OC(=O)[C@]23CC[C@H]4C(=CC[C@H]5C(C)(C)[C@@H](O[C@@H]6OC[C@@H](O)[C@H](O)[C@H]6O[C@@H]6O[C@H](CO)[C@@H](OS(=O)(=O)O)[C@H](O)[C@H]6O)CC[C@]45C)[C@]2(C)CC[C@H]13 (some centres undefined) yields IC50 of 45.4

Query Cc1c2ccncc2c(C)c2c1[nH]c1ccccc12 yields IC50 of 1.79

Query C=C(C)CCC(O)[C@]1(C)OC(=O)[C@]23CC[C@H]4C(=CC[C@H]5C(C)(C)[C@@H](O[C@@H]6OC[C@@H](O)[C@H](O)[C@H]6O[C@@H]6O[C@H](CO)[C@@H](O)[C@H](O)[C@H]6O)CC[C@]45C)[C@]2(C)CC[C@H]13 (some centres undefined) yields IC50 of 33.5

Query CC(C)C[C@H](O)C[C@]1(C)OC(=O)[C@]23CC[C@H]4C(=CC[C@H]5C(C)(C)[C@@H](O[C@@H]6OC[C@@H](O)[C@H](O)[C@H]6O[C@@H]6OC[C@@H](O)[C@H](O)[C@H]6O)CC[C@]45C)[C@]2(C)CC[C@@H]31 yields IC50 of 48.4

Query CC(=O)O[C@@H](CC(C)C)C[C@]1(C)OC(=O)[C@]23CC[C@H]4C(=CC[C@H]5C(C)(C)[C@@H](O[C@@H]6OC[C@@H](O)[C@H](O)[C@H]6O[C@@H]6OC[C@@H](O)[C@H](O)[C@H]6O)CC[C@]45C)[C@]2(C)CC[C@@H]31 yields IC50 of 3.11
